system: Serum; assay: Stability of the compound in 10% fetal bovine serum at 50 uM up to 240 mins by RP-HPLC analysis; format: ADME, cell-free, Bos taurus; conditions: cattle, 4 h
readout-type: Stability

Worked examples, 4 molecules total:
> print(dat)
                                item.smiles  recorded.value
1  C[n+]1cn([C@@H]2O[C@H](CO[P@](=O)(S)OP(=O)([O-])OP(=O)(O)O)[C@@H](O)[C@H]2O)c2nc(N)nc(O)c21.N.N.N.N          Stable
2  C[n+]1cn([C@@H]2O[C@H](CO[P@@](=O)(S)OP(=O)([O-])CP(=O)(O)O)[C@@H](O)[C@H]2O)c2nc(N)nc(O)c21.N.N.N.N        Unstable
3  C[n+]1cn([C@@H]2O[C@H](COP(=O)([O-])OP(=O)(O)OP(=O)(O)O)[C@@H](O)[C@H]2O)c2nc(N)[nH]c(=O)c21        Unstable
4  C[n+]1cn([C@@H]2O[C@H](CO[P@@](=O)(S)OP(=O)([O-])OP(=O)(O)O)[C@@H](O)[C@H]2O)c2nc(N)nc(O)c21.N.N.N.N          Stable

Requested field: Stability. Item: C[n+]1cn([C@@H]2O[C@H](CO[P@](=O)(S)OP(=O)([O-])CP(=O)(O)O)[C@@H](O)[C@H]2O)c2nc(N)nc(O)c21.N.N.N.N
Stable

These entries and their values trace back to ChEMBL document CHEMBL3603763.
